experiment: Selectivity index, ratio of IC50 for human MCF7 cells to IC50 for chloroquine-sensitive Plasmodium falciparum 3D7; format: toxicity, cell-based; settings: read-out: Ratio IC50
Each entry below carries its recorded selectivity ratio.

# compound, selectivity ratio
records = [
    ("CO[C@H]1C=C2[C@@H](CC[C@H](OC(=O)/C=C/c3ccccc3)C2(C)C)[C@]2(C)CC[C@]3(C)[C@@H]([C@H](C)C[C@H](C=C(C)C)OC(=O)/C=C/c4ccccc4)CC[C@@]3(C)[C@H]12 [KARAVOATE P]", "> 2"),
    ("CO[C@H]1C=C2[C@@H](CC[C@H](O)C2(C)C)[C@]2(C)CC[C@]3(C)[C@@H]([C@H](C)C[C@H](C=C(C)C)OC(C)=O)CC[C@@]3(C)[C@H]12 [KARAVOATE A]", 3.4),
    ("CCC(=O)O[C@H]1CC[C@@H]2C(=C[C@H](OC)[C@@H]3[C@@]2(C)CC[C@]2(C)[C@@H]([C@H](C)C[C@H](C=C(C)C)OC(=O)CC)CC[C@@]32C)C1(C)C [KARAVOATE D]", "> 89"),
    ("CO[C@H]1C=C2[C@@H](CC[C@H](OC(=O)c3ccccc3)C2(C)C)[C@]2(C)CC[C@]3(C)[C@@H]([C@H](C)C[C@H](C=C(C)C)OC(=O)c4ccccc4)CC[C@@]3(C)[C@H]12 [KARAVOATE H]", "> 3.7"),
]

----------
tested on: Plasmodium falciparum; experiment: Antimalarial activity against chloroquine-sensitive Plasmodium falciparum 3D7 infected in erythrocytes after 48 hrs by SYBR Green 1-based fluorescence assay; assay type: functional, organism-based; conditions: 3D7, 48 h
assay endpoint: IC50

# compound, observed value
measured = [
    ("CCCC(=O)O[C@@H](C=C(C)C)C[C@@H](C)[C@H]1CC[C@@]2(C)[C@@H]3[C@@H](OC)C=C4[C@@H](CC[C@H](O)C4(C)C)[C@]3(C)CC[C@]12C [KARAVOATE E]", "3.5 µM"),
    ("CCC(=O)O[C@@H](C=C(C)C)C[C@@H](C)[C@H]1CC[C@@]2(C)[C@@H]3[C@@H](OC)C=C4[C@@H](CC[C@H](O)C4(C)C)[C@]3(C)CC[C@]12C [KARAVOATE C]", "5.1 µM"),
    ("CO[C@H]1C=C2[C@@H](CC[C@H](OC(C)=O)C2(C)C)[C@]2(C)CC[C@]3(C)[C@@H]([C@H](C)C[C@H](C=C(C)C)OC(C)=O)CC[C@@]3(C)[C@H]12 [KARAVOATE B]", "0.5 µM"),
]

----------
tested on: Plasmodium falciparum; experiment: Antimalarial activity against chloroquine-sensitive Plasmodium falciparum 3D7 infected in erythrocytes after 48 hrs by SYBR Green 1-based fluorescence assay; type: functional, organism-based; details: 3D7, 48 h
pIC50: −log10 of the molar value.
assay endpoint: pIC50

# molecule, test system, observed value
rows = [
    ("CO[C@H]1C=C2[C@@H](CC[C@H](OC(=O)/C=C/c3ccccc3)C2(C)C)[C@]2(C)CC[C@]3(C)[C@@H]([C@H](C)C[C@H](C=C(C)C)OC(=O)/C=C/c4ccccc4)CC[C@@]3(C)[C@H]12 [KARAVOATE P]", "Plasmodium falciparum", 4.19),
    ("CO[C@H]1C=C2[C@@H](CC[C@H](O)C2(C)C)[C@]2(C)CC[C@]3(C)[C@@H]([C@H](C)C[C@H](C=C(C)C)OC(=O)c4ccc(Cl)cc4)CC[C@@]3(C)[C@H]12 [KARAVOATE K]", "Plasmodium falciparum", 4.88),
    ("CO[C@H]1C=C2[C@@H](CC[C@H](O)C2(C)C)[C@]2(C)C[C@@H](O)[C@]3(C)[C@@H]([C@H](C)C[C@@H](O)C=C(C)C)CC[C@@]3(C)[C@H]12", "Plasmodium falciparum", 4.28),
    ("CO[C@H]1C=C2[C@@H](CC[C@H](O)C2(C)C)[C@]2(C)CC[C@]3(C)[C@@H]([C@H](C)C[C@H](C=C(C)C)OC(=O)/C=C/c4ccccc4)CC[C@@]3(C)[C@H]12 [KARAVOATE O]", "Plasmodium falciparum", 5.18),
    ("COc1ccc(C(=O)O[C@@H](C=C(C)C)C[C@@H](C)[C@H]2CC[C@@]3(C)[C@@H]4[C@@H](OC)C=C5[C@@H](CC[C@H](O)C5(C)C)[C@]4(C)CC[C@]23C)cc1 [KARAVOATE M]", "Plasmodium falciparum", 5.89),
    ("CO[C@H]1C=C2[C@@H](CC[C@H](OC(=O)c3ccc(Cl)cc3)C2(C)C)[C@]2(C)CC[C@]3(C)[C@@H]([C@H](C)C[C@H](C=C(C)C)OC(=O)c4ccc(Cl)cc4)CC[C@@]3(C)[C@H]12 [KARAVOATE L]", "Plasmodium falciparum", 4.65),
    ("CCCC(=O)O[C@H]1CC[C@@H]2C(=C[C@H](OC)[C@@H]3[C@@]2(C)CC[C@]2(C)[C@@H]([C@H](C)C[C@H](C=C(C)C)OC(=O)CCC)CC[C@@]32C)C1(C)C [KARAVOATE F]", "Plasmodium falciparum", 5.16),
    ("CO[C@H]1C=C2[C@@H](CC[C@H](OC(=O)c3ccccc3)C2(C)C)[C@]2(C)CC[C@]3(C)[C@@H]([C@H](C)C[C@H](C=C(C)C)OC(=O)c4ccccc4)CC[C@@]3(C)[C@H]12 [KARAVOATE H]", "Plasmodium falciparum", 4.44),
    ("CCC(=O)O[C@H]1CC[C@@H]2C(=C[C@H](OC)[C@@H]3[C@@]2(C)CC[C@]2(C)[C@@H]([C@H](C)C[C@H](C=C(C)C)OC(=O)CC)CC[C@@]32C)C1(C)C [KARAVOATE D]", "Plasmodium falciparum", 5.82),
]

meta.source: ChEMBL document CHEMBL1641571
